The measurements presented in this section are drawn from PubChem BioAssay.

Test system: XIP peptide (Xip251-270) binding
Experiment: XIP fragment 251-270 binding compounds – biochemical, small-molecule microarray, fluorescence 635/667 nm, 0.1 µg/mL protein, primary screen (AID 1182)
Conditions: fluorescent protein binding, 635 nm, higher = more signal, called active from +8 up or from −8 down
Calls of active or inactive are those of the source.
Experimental endpoint: composite z-score

Examples with their reported composite z-score follow.
CC(C)N1C(=O)c2ccccc2[C@@H](C(=O)NCCN2CCOCC2)[C@@H]1c1ccc(CO)cc1 :: 0.122 (inactive)
COc1ccc(CCNC(=O)[C@@]2(Cc3ccccc3I)c3ccccc3C(=O)N(C3CCCCC3)[C@H]2c2ccc(CO)cc2)cc1 :: 0.898 (inactive)
COCCOC(=O)N1C(=O)[C@@]2(c3cc(C#CCCO)ccc31)[C@H](C(=O)Nc1nc3ccccc3s1)[C@H]1C(=O)O[C@H](c3ccccc3)[C@H](c3ccccc3)N1[C@@H]2c1ccc(O)cc1 :: 3.02 (inactive)
O=C(C1N=C(c2ccc(OCCCO)cc2)N(c2ccccc2)O1)N1CCCCC1 (configuration not stated) :: 2.64 (inactive)
C=CCNC(=O)[C@@H]1[C@H]2C(=O)O[C@H](c3ccccc3)[C@H](c3ccccc3)N2[C@H](c2ccc(O)cc2)[C@@]12C(=O)N(C(=O)OCCOC)c1ccc(C#CC3=CCCCC3)cc12 :: 0.423 (inactive)

Inquiry: Tell me the measured composite z-score of CC(C)NC(=O)[C@@]1(c2ccc([N+](=O)[O-])cc2)CC(=O)N(C2CCCCC2)[C@@H]1c1ccc(CO)cc1 , please.
Reply text: 1.15 (inactive)

Inquiry: Tell me the measured composite z-score of C[N+](C)(C)CCCCCCNC(=O)[C@@H]1C[C@@H]2C(=O)N3CCC[C@H]3C(=O)N2[C@@H]1c1ccc(O)cc1 , please.
Reply text: 0.45 (inactive)
